tgt: human TYK2 (JH2domain-pseudokinase) (Homo sapiens (Human))
Sequence (P29597 556-888): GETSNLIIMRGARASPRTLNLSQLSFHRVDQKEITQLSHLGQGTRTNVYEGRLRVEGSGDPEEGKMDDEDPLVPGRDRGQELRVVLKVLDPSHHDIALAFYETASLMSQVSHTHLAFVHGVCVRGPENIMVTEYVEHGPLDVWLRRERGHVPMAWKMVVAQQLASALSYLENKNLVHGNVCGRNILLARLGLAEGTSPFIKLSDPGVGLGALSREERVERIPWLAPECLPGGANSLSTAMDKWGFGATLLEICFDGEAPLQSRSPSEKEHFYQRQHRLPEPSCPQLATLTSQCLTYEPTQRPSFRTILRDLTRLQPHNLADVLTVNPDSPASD
assayNotes: TYK2 JH2 Domain Binding Assay (KINOMEscan)
Description: Binding constants for compounds of the present invention against the JH2 domain were determined by the following protocol for a KINOMEscan® assay (DiscoveRx). […] The TYK2 (JH2domain-pseudokinase) fusion protein was labeled with a chimeric double-stranded DNA tag containing the NFkB binding site (5′-[…]-3′) fused to an amplicon for qPCR readout, which was added directly to the expression extract (the final concentration of DNA-tag in the binding reaction is 0.1 nM). […]
measuredMetric: Kd

Would you please look over these solved cases?
INSERT INTO results (compound, result) VALUES
  ('CNc1cc(Nc2cc(C)cnc2OCCOC)nc2c(C(=O)N[C@H]3C[C@H]3F)cnn12', '< 0.2 nM'),
  ('CNc1cc(Nc2cccnc2OC)nc2c(C(=O)NC3CCC3O)cnn12 (centres unmarked)', '< 0.2 nM'),
  ('CNc1cc(Nc2cccn(C(C)C)c2=O)nc2c(C(=O)N[C@H]3CC[C@H]3O)cnn12', '< 0.2 nM');

[Q] Look up Kd for this compound: CNc1cc(Nc2cccn(-c3ncc(C)s3)c2=O)nc2c(C(=O)N[C@@H]3CC[C@H]3O)cnn12
[A] < 0.2 nM

[Q] Look up Kd for this compound: CNc1cc(Nc2cc(Cl)cn(-c3ncc(C)s3)c2=O)nc2c(C(=O)NC3CC3)cnn12
[A] 0.2 to 1 nM

[Q] Look up Kd for this compound: CNc1cc(Nc2cc(C)cn(-c3cnn(C4CC4)c3C)c2=O)nc2c(C(=O)NC3CCC3)cnn12
[A] 0.2 to 1 nM

[Q] Look up Kd for this compound: CNc1cc(Nc2cccn([C@H]3CC[C@@H]3O)c2=O)nc2c(C(=O)NC3CC3)cnn12
[A] 0.2 to 1 nM

[Q] Look up Kd for this compound: CNc1cc(Nc2cccn(-c3ccn(C4CC4)n3)c2=O)nc2c(C(=O)NC3COC3)cnn12
[A] > 10 nM

----------
Listing of entries alongside the reported Kd.
tgt: human TYK2 (JH2domain-pseudokinase) (Homo sapiens (Human))
assayNotes: TYK2 JH2 Domain Binding Assay (KINOMEscan)

Would you please look over these solved cases?
INSERT INTO results (compound, result) VALUES
  ('CNc1cc(-c2cn(C(C)C)c3ncc(F)cc23)nc2c(C(=O)N[C@@H]3CC[C@@H]3O)cnn12', '1 to 10 nM'),
  ('CNc1cc(Nc2cc(F)cnc2OC(C)C)nc2c(C(=O)NC3CC3)cnn12', '0.2 to 1 nM'),
  ('CNc1cc(Nc2cccn([C@@H]3CCCC[C@@H]3O)c2=O)nc2c(C(=O)NC3CC3)cnn12 [I-879]', '1 to 10 nM'),
  ('COc1ncccc1Nc1cc(NCCCN2CCOCC2)n2ncc(C(=O)NC3CC3)c2n1', '0.2 to 1 nM'),
  ('CNc1cc(Nc2cccn(C3CCCOC3)c2=O)nc2c(C(=O)NC3CCC3)cnn12 (racemic)', '< 0.2 nM');

[Q] Look up Kd for this compound: [2H]C([2H])([2H])Oc1ncccc1Nc1cc(NC)n2ncc(C(=O)N[C@H]3CC[C@H](O)C3)c2n1 [I-462]
[A] < 0.2 nM

[Q] Look up Kd for this compound: CNc1cc(Nc2cccn([C@H]3CCC[C@H]3OC)c2=O)nc2c(C(=O)N[C@@H]3C[C@@H]3F)cnn12
[A] 1 to 10 nM

[Q] Look up Kd for this compound: CNc1cc(Nc2cc(Cl)cn(C3CCCN(C)C3)c2=O)nc2c(C(=O)NC3CC3)cnn12 (centres unmarked)
[A] < 0.2 nM
